Data origin, for the record: ChEMBL document CHEMBL1133586

- measurement.description: Minimum inhibitory concentration was determined against HSV-2 (Lyons) in E6SM cell culture
- Type: functional, herpes simplex virus
assay.endpoint: MIC (µg/mL)
Field: numeric (µg/mL). Do not append units.

# example entries with known answers
compound	readout.units	reading
Nc1nc(O)c2ncn(C3C=CC(CO)C(O)C3)c2n1 (centres undefined)	µg/mL	0.07
Nc1nc2c(ncn2COC(CO)CO)c(=O)[nH]1 [GANCICLOVIR]	µg/mL	0.001

# input for lookup
Q: Any idea what MIC was measured for Nc1nc2c(ncn2COCCO)c(=O)[nH]1 [ACYCLOVIR] ?
A: 0.02
